- assay-details: Test 9: Toxicity Test (acute oral toxicity, mice)
- experimental-parameters: mouse, in vivo, po
parameter-measured: LD50 at 168 h (mg/kg)
# value in mg/kg; strip the unit string

compound: CC(C)C(C(=O)OC(C#N)c1cccc(Oc2ccccc2)c1)c1ccc(Cl)cc1 (stereo not shown) [Comparative Compound (a), reference compound]
numeric-value: 260

Next item in the queue.
Prompt: Which measured LD50 at 168 h value corresponds to CNC(=O)Oc1cccc(C)c1 [Comparative Compound (e), m-tolyl-N-methylcarbamate, reference compound] ?
Response: 220

---

- System: tobacco cutworm
- assay-details: Test 1: Effect on Tobacco Cutworm (leaf immersion), mortality after 24 hours
- Type: in vivo
- experimental-parameters: 20 ppm, second-instar larvae, 25° C
parameter-measured: mortality at 20 ppm (%)
# value in %; strip the unit string

In the examples that follow, each entry is paired with its recorded mortality at 20 ppm.
chem-smiles: CC(C)(COCc1cccc(Oc2ccc(F)cc2)c1)c1ccc(Cl)cc1
parameter-measured: mortality at 20 ppm
numeric-value: 100

chem-smiles: CC(C)(COCc1cccc(Oc2ccc(F)cc2)c1)c1ccc(Cl)c(Cl)c1
parameter-measured: mortality at 20 ppm
numeric-value: 80

chem-smiles: CC(C)(COCc1cccc(Oc2ccccc2)c1)c1ccc(Cl)c(Cl)c1
parameter-measured: mortality at 20 ppm
numeric-value: 80

chem-smiles: CC(C)(COCc1cccc(Oc2ccccc2)c1)c1ccc(F)c(Cl)c1
parameter-measured: mortality at 20 ppm
numeric-value: 80

chem-smiles: CC(C)(CSCc1cccc(Oc2ccc(Br)cc2)c1)c1ccc(Cl)cc1
parameter-measured: mortality at 20 ppm
numeric-value: 100

chem-smiles: CCOc1ccc(C(C)(C)COCc2cccc(Oc3ccccc3)c2)cc1Cl
parameter-measured: mortality at 20 ppm
numeric-value: 100

chem-smiles: CC(C)(COCc1cccc(Oc2ccccc2)c1)c1ccc(Oc2ccccc2)cc1
parameter-measured: mortality at 20 ppm
numeric-value: 90

chem-smiles: CCOc1ccc(C(C)(C)COCc2cccc(Oc3ccc(Br)cc3)c2)cc1
parameter-measured: mortality at 20 ppm
numeric-value: 100

Next item in the queue.
Prompt: Item: `CCCCCOc1ccc(C(C)(C)COCc2cccc(Oc3ccccc3)c2)cc1` Test system: tobacco cutworm Read-out: mortality at 20 ppm Value: ?
Response: 80
